# METHOD_NOTES: self-splicing fitness, log relative to wild type (ln ratio); higher = more splicing; Tetrahymena group I intron in knt gene, E. coli kanamycin selection, DiMSum; sequences stand for … in CUCUCU…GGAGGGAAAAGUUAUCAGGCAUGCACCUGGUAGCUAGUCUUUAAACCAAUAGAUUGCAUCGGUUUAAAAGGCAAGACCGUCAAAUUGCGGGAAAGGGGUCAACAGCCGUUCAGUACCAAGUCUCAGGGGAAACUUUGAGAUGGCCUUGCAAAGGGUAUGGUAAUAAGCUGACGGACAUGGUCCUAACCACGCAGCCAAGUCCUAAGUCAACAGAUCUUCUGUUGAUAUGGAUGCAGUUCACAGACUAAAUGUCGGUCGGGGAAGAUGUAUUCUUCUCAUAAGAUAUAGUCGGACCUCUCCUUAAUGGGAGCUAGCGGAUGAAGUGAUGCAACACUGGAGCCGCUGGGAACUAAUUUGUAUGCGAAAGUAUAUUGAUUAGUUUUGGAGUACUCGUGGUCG;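 further: selection with 25 µg/mL kanamycin versus none on LB agar overnight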
# EXPERIMENTAL_PARAMETERS: 37 °C
Here, each record is paired with measured self-splicing fitness (ln) data.

Below are worked cases with known answers.
INSERT INTO results (residue_string, observed) VALUES
  ('AUUGAGCAAUAUUACGGGGU', -3.44),
  ('AUUUAGCAAUAUUACGAUGU', 0.369),
  ('ACCAAGCAAUAUUACGCGAA', -1.65),
  ('CCUAAGCAAUAUUACGGAAG', -0.751),
  ('UCCAAGCAAUAUUACGAUUA', -0.817),
  ('AUGCAGCAAUAUUACGCGGA', -0.559),
  ('ACGCAGCAAUAUUACGCUGA', -0.835),
  ('GCCAAGCAAUAUUACGACCC', -0.813);

## Input Would you kindly share the measured self-splicing fitness (ln) for AUCUAGCAAUAUUACGAUUC ?
## Output -1.23

## Input Fill blank: measured self-splicing fitness (ln) of the sequence ACACAGCAAUAUUACGGCGA is ____.
## Output -0.165

## Input Which measured self-splicing fitness (ln) value corresponds to CGAGAGCAAUAUUACGUCAA ?
## Output -2.4

## Input Name the reported self-splicing fitness (ln) value associated with the sequence UCAGAGCAAUAUUACGUUGU
## Output -3.51

## Input May I ask what self-splicing fitness (ln) has been recorded for CGGAAGCAAUAUUACGGAUU ?
## Output -2.36

## Input Please report the recorded self-splicing fitness (ln) for CUGCAGCAAUAUUACGCCUC .
## Output -2.16
